As shown below, each of these compounds has a reported Ki value.
- Target System: UniProt:P31645
- Sequence (P31645 whole entry): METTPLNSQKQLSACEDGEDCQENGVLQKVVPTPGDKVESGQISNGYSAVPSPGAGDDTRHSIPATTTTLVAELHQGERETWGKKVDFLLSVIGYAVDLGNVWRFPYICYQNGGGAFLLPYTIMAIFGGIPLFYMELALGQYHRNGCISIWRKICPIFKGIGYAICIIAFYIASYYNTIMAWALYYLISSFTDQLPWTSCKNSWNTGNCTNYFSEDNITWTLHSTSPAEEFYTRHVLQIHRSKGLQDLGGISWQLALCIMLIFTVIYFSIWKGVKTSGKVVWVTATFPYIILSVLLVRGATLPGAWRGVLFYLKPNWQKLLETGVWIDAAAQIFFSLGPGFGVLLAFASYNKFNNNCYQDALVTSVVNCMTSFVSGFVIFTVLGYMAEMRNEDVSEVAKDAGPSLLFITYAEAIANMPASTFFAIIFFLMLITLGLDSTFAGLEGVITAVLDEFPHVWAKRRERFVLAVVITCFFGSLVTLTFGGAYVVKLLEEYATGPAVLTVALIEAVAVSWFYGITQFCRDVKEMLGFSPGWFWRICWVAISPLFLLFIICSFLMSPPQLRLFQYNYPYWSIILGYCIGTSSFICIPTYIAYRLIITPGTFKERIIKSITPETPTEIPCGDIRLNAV

Compound	Ki, nM
CCCN(C)[C@@H]1C[C@@H](c2ccc(Cl)c(Cl)c2)c2ccccc21 (relative stereo)	91
CC(C)N[C@H]1C[C@@H](c2ccc(Cl)c(Cl)c2)c2ccccc21 (relative stereo)	130
CC(C)N(C)[C@H]1C[C@@H](c2ccc(Cl)c(Cl)c2)c2ccccc21	73
